These entries and their values trace back to patent US20230095569A1.

# ASSAYED SYSTEM: human Claudin18.2 (CLDN18.2) (human, UniProt P56856 1-261)
# PROCEDURE TEXT: cell-based or functional assay
# ADCC EC50 values compiled below

{"BINDER": "chAb08 (antibody, V domains shown) VH: QVQLQQPGAELVKPGASVKLSCKASGYTFTSYLLHWVKQRPGQGLEWIGMIHPNGGSTNYNEKFKTKATLTVDKSSSTAYMQLSSLTSEDSAVYYCAPVYFGNSFAYWGQGTLVTVSA VL: DIVMTQSPSSLTVTAGEKVTMSCKSSQSLLNSGNQKNYLTWYQQKPGQPPKLLIYWASTRESGVPDRFTGSGSGTDFTLTISSVQAEDLAVYYCQNDYYYPFTFGSGTKLEKK", "RESULT UNIT": "nM", "ADCC EC50": 2.22}
{"BINDER": "chAb30 (antibody, V domains shown) VH: QVQLKESGPGLVAPSQSLSITCTVSGFSLTKFGVNWVRQPPGKGLEWLGAIWGDGSTNYHSALISRLSINKDNSKSQVFLKLSSLQNVDTATYYCAKSGYGNAMDYWGHGTSVTVSS VL: DIVMTQSPSSLTVTTGEKVTLNCKSSQSLLNSGNLKNYLTWYQQRPGQPPKLLIYWASTRESGVPYRFTGSGSGTDFTLTISNVQAEDLAIYYCQNDYFFPFTFGSGTKLEIK", "RESULT UNIT": "nM", "ADCC EC50": 7.44}
{"BINDER": "chAb11 (antibody, V domains shown) VH: EVMLVESGGDLVKPGGSLKLSCAASGFTFSRYTMSWVRQTPEKRLEWVATVSVGSGNTYYLDSVKGRFTISRDNAKNTLFLQMNSLRSEDTALYYCTRLGQTQRNAVDYWGQGTSVTVSS VL: DIVMTQSPSFLSVSAGEKVTMSCKSSQSLFNGGNQKNYLAWYQQKPGQPPKLLIYGASTRDSGVPDRFTGSGSGTDFTLTISNVQAEDLAIYFCQNDHSFPLTFGAGTKLELK", "RESULT UNIT": "nM", "ADCC EC50": 3.7}
{"BINDER": "chAb17 (antibody, V domains shown) VH: QVQLKESGPGLVAPSQSLSITCTVSGFSLTSYAISWVRQPPGKGLEWLGEIWTGGGTNYNSALKSRLSISKDNSKSQVFLKMNSLQTDDTARYYCGRLSYGNSLDYWGQGTTLTVSS VL: DIVMTQSPSSLTVTAGEKVTMSCKSSQSLLNSGNQKNYLTWYQQKPGQPPKLLIYWASTRESGVPDRFTGSGSGTDFTLTVSSVQAEDLAVYYCQNNFIYPLTFGPGTKLELK", "RESULT UNIT": "nM", "ADCC EC50": 2.46}
{"BINDER": "chAb15 (antibody, V domains shown) VH: EVMLVESGGDLVKPGGSLKLSCAASGFTFSTYTMSWVRQTPEKRLEWVATIVGGGGYTYYLDSVKGRFTISRDNAKNTLYLQMISLRSEDTALYYCARMGLTQRNALDYWGQGTSITVSS VL: DIVMTQSPSSLSVSEGEKVTLNCKSSQSLFNSGNQKNYLAWYQQKPGQPPKLLIYGASTRESGVPDRFTGSGFGTDFTLTISSVQAEDLAVYYCQNDHTYPLTFGAGAKLELK", "RESULT UNIT": "nM", "ADCC EC50": 2.65}
